Assay: Measurement of tamoxifen metabolites in finger-prick blood (VAMS, UPLC-MS/MS)
Type: in vivo, human (Indonesian ER+ breast cancer patients)
Settings: CYP2D6 Intermediate Metabolizer (N = 61), baseline
Method: Finger-prick blood sample was obtained using Volumetric Absorptive Microsampling (VAMS) technique. VAMS extraction was performed in methanol by sonication-assisted extraction method for 25 minutes after 2 hours of VAMS drying. Separation was carried out using Acquity UPLC BEH C1s column (2.1×100 mm; 1.7 μm), with a flow rate of 0.2 mL/minute, and the mobile phase gradient of formic acid 0.1% combined with formic acid 0.1% in acetonitrile for 5 minutes. […]
Readout type: Peripheral Whole Blood Concentration, Median (ng/mL)
Respond numerically; units are ng/mL and should not be typed.

The cases that follow already have their Peripheral Whole Blood Concentration, Median on record.
molecule="CC/C(=C(\\c1ccc(O)cc1)c1ccc(OCCNC)cc1)c1ccccc1 [endoxifen, 4-hydroxy-N-desmethyltamoxifen]" measure_unit=ng/mL result_number=8.33
molecule=CC/C(=C(\c1ccc(O)cc1)c1ccc(OCCN(C)C)cc1)c1ccccc1 measure_unit=ng/mL result_number=3.27
molecule=CC/C(=C(\c1ccccc1)c1ccc(OCCN(C)C)cc1)c1ccccc1 measure_unit=ng/mL result_number=81.72

Query: Any idea what Peripheral Whole Blood Concentration, Median was measured for "CC/C(=C(\c1ccccc1)c1ccc(OCCNC)cc1)c1ccccc1" ?
Reply: 241.55

====

assay: Measurement of tamoxifen metabolites in finger-prick blood (VAMS, UPLC-MS/MS); type: in vivo, human (Indonesian ER+ breast cancer patients); conditions: CYP2D6 Poor Metabolizer (N = 2), baseline
A collection of compounds and their measured Peripheral Whole Blood Concentration, Median
Kindly provide the numeric value in ng/mL only, without the unit symbol.

These recorded examples may help you get a feel for the data.
compound="CC/C(=C(\\c1ccc(O)cc1)c1ccc(OCCNC)cc1)c1ccccc1 [endoxifen, 4-hydroxy-N-desmethyltamoxifen]" measure_unit=ng/mL result_number=4.52
compound=CC/C(=C(\c1ccccc1)c1ccc(OCCNC)cc1)c1ccccc1 measure_unit=ng/mL result_number=276.45
compound=CC/C(=C(\c1ccccc1)c1ccc(OCCN(C)C)cc1)c1ccccc1 measure_unit=ng/mL result_number=91.49

Query: Which measured Peripheral Whole Blood Concentration, Median value corresponds to "CC/C(=C(\c1ccc(O)cc1)c1ccc(OCCN(C)C)cc1)c1ccccc1" ?
Reply: 3.24

====

In this section, each of the compounds is paired with its reported Peripheral Whole Blood Concentration, Range.
test: Measurement of tamoxifen metabolites in finger-prick blood (VAMS, UPLC-MS/MS); format: in vivo, human (Indonesian ER+ breast cancer patients); settings: CYP2D6 Poor Metabolizer (N = 2), baseline

The following compounds have reported results that may help.
compound=CC/C(=C(\c1ccc(O)cc1)c1ccc(OCCN(C)C)cc1)c1ccccc1 result="3.06 to 3.43 ng/mL"
compound=CC/C(=C(\c1ccccc1)c1ccc(OCCN(C)C)cc1)c1ccccc1 result="67.49 to 115.48 ng/mL"
compound="CC/C(=C(\\c1ccc(O)cc1)c1ccc(OCCNC)cc1)c1ccccc1 [endoxifen, 4-hydroxy-N-desmethyltamoxifen]" result="3.94 to 5.11 ng/mL"

// below: Peripheral Whole Blood Concentration, Range requested for another compound
Query: Which Peripheral Whole Blood Concentration, Range value is on record for "CC/C(=C(\c1ccccc1)c1ccc(OCCNC)cc1)c1ccccc1" ?
Reply: 212.5 to 340.41 ng/mL

====

test: Measurement of tamoxifen metabolites in finger-prick blood (VAMS, UPLC-MS/MS); type: in vivo, human (Indonesian ER+ breast cancer patients); settings: CYP2D6 Normal Metabolizer (N = 81), baseline
Readout type: Peripheral Whole Blood Concentration, Range

Before answering, review these 3 worked examples.
compound="CC/C(=C(\\c1ccccc1)c1ccc(OCCN(C)C)cc1)c1ccccc1 [tamoxifen]" result="31.22 to 170.82 ng/mL"
compound="CC/C(=C(\\c1ccccc1)c1ccc(OCCNC)cc1)c1ccccc1 [ND-tam]" result="80.63 to 321.88 ng/mL"
compound="CC/C(=C(\\c1ccc(O)cc1)c1ccc(OCCNC)cc1)c1ccccc1 [endoxifen, 4-hydroxy-N-desmethyltamoxifen]" result="3.55 to 34.77 ng/mL"

Query: GET /values?readout=Peripheral Whole Blood Concentration, Range&item= CC/C(=C(\c1ccc(O)cc1)c1ccc(OCCN(C)C)cc1)c1ccccc1 [4OH-tam]
Reply: 1.5 to 7.66 ng/mL

====

Recorded measurements of Peripheral Whole Blood Concentration, Range, one per entry
Assay: Measurement of tamoxifen metabolites in finger-prick blood (VAMS, UPLC-MS/MS)
Type: in vivo, human (Indonesian ER+ breast cancer patients)
Details: CYP2D6 Intermediate Metabolizer (N = 61), baseline
Protocol: Finger-prick blood sample was obtained using Volumetric Absorptive Microsampling (VAMS) technique. VAMS extraction was performed in methanol by sonication-assisted extraction method for 25 minutes after 2 hours of VAMS drying. Separation was carried out using Acquity UPLC BEH C1s column (2.1×100 mm; 1.7 μm), with a flow rate of 0.2 mL/minute, and the mobile phase gradient of formic acid 0.1% combined with formic acid 0.1% in acetonitrile for 5 minutes. […]

Here's what some known entries look like.
molecule="CC/C(=C(\\c1ccc(O)cc1)c1ccc(OCCNC)cc1)c1ccccc1 [endoxifen, 4-hydroxy-N-desmethyltamoxifen]" result="3.17 to 22.97 ng/mL"
molecule=CC/C(=C(\c1ccccc1)c1ccc(OCCN(C)C)cc1)c1ccccc1 result="14.22 to 210.39 ng/mL"
molecule=CC/C(=C(\c1ccc(O)cc1)c1ccc(OCCN(C)C)cc1)c1ccccc1 result="1.5 to 9.31 ng/mL"

We now examine a further molecule.
Query: Which measured Peripheral Whole Blood Concentration, Range value corresponds to "CC/C(=C(\c1ccccc1)c1ccc(OCCNC)cc1)c1ccccc1" ?
Reply: 77.61 to 337.29 ng/mL

====

compounds and their reported Peripheral Whole Blood Concentration, Median
Experiment: Measurement of tamoxifen metabolites in finger-prick blood (VAMS, UPLC-MS/MS)
Assay type: in vivo, human (Indonesian ER+ breast cancer patients)
Conditions: CYP2D6 Normal Metabolizer (N = 81), baseline
Method: Finger-prick blood sample was obtained using Volumetric Absorptive Microsampling (VAMS) technique. VAMS extraction was performed in methanol by sonication-assisted extraction method for 25 minutes after 2 hours of VAMS drying. Separation was carried out using Acquity UPLC BEH C1s column (2.1×100 mm; 1.7 μm), with a flow rate of 0.2 mL/minute, and the mobile phase gradient of formic acid 0.1% combined with formic acid 0.1% in acetonitrile for 5 minutes. […]
Hi! Could you send only the number? It should be in ng/mL, unit omitted.

Known results for compounds:
compound=CC/C(=C(\c1ccccc1)c1ccc(OCCN(C)C)cc1)c1ccccc1 result_number=77.46
compound=CC/C(=C(\c1ccccc1)c1ccc(OCCNC)cc1)c1ccccc1 result_number=240.59
compound=CC/C(=C(\c1ccc(O)cc1)c1ccc(OCCN(C)C)cc1)c1ccccc1 result_number=3.07

Okay, now this compound:
Query: What value of measured Peripheral Whole Blood Concentration, Median is listed for CC/C(=C(\c1ccc(O)cc1)c1ccc(OCCNC)cc1)c1ccccc1 [endoxifen, 4-hydroxy-N-desmethyltamoxifen] ?
Reply: 11.98

====

The entries below come with measured concentration at 8 weeks values attached.
experiment: Measurement of tamoxifen metabolites in finger-prick blood (VAMS, UPLC-MS/MS); assay type: in vivo, human (Indonesian ER+ breast cancer patients); details: human, whole blood (finger-prick, VAMS), oral, 40 mg daily; read-out: range of metabolite levels after dose adjustment

compound="CC/C(=C(\\c1ccccc1)c1ccc(OCCN(C)C)cc1)c1ccccc1 [tamoxifen]" readout_type="concentration at 8 weeks" result="80.6 to 255 ng/mL"

Continue with the next compound.
Query: Field request: concentration at 8 weeks | item: CC/C(=C(\c1ccc(O)cc1)c1ccc(OCCNC)cc1)c1ccccc1 [endoxifen, 4-hydroxy-N-desmethyltamoxifen]
Reply: 7.68 to 23.4 ng/mL
